These measurements were taken from patent US11072628B2.

Kindly supply the reported EC50 values for the records listed here.
Test: Cytotoxicity against MRC-5 fibroblasts
Conditions: human, MRC-5 fibroblasts, MRC-5 EC50, Table 5; cytotoxicity

So what does the record say about EC50 for CC(C)Oc1ncnc2c1c(Cl)cn2[C@@H]1O[C@H](CO)[C@@H](O)[C@H]1O ?
> 64 µM

How about COc1ncnc2c1c(Cl)cn2[C@@H]1O[C@H](CO)[C@@H](O)[C@H]1O ?
48 µM

How about COc1ncnc2c1c(Br)cn2[C@@H]1O[C@H](CO)[C@@H](O)[C@H]1O ?
> 64 µM

###

Experiment: in vitro
Settings: human, MRC-5 EC50
experimental-readout: pEC50
Kindly note that pEC50 refers to -log10 of the concentration in mol/L and answer with the value alone.

So what does the record say about pEC50 for Nc1ncnc2c1c(Br)cn2[C@@H]1O[C@H](CO)[C@@H](O)[C@H]1O ?
4.48

###

Tested on: MRC-5 fibroblasts
Assay: in vitro
experimental-readout: log10 of EC50 (log10 of the value in µM)
For clarity, the numbers are log10 values of EC50 expressed in µM.

So what does the record say about log10 of EC50 for Cc1ccc(-c2cn([C@@H]3O[C@H](CO)C[C@H]3O)c3ncnc(N)c23)cc1C ?
1.35

How about OC[C@@H]1C[C@@H](O)[C@H](n2cc(Br)c3c(Cl)ccnc32)O1 ?
1.43

How about Nc1ncnc2c1ccn2[C@@H]1O[C@H](COS(N)(=O)=O)C[C@H]1O ?
0.71

How about Nc1ncnc2c1c(-c1ccccc1)cn2[C@@H]1O[C@H](CO)C[C@H]1O ?
1.79

How about Nc1ncnc2c1c(SC(F)(F)F)cn2[C@@H]1O[C@H](CO)C[C@H]1O ?
1.27

###

Tested on: T. b. rhodesiense STIB-900
Assay: In vitro drug susceptibility, T. b. rhodesiense STIB-900 (resazurin)
Type: cell-based, Trypanosoma brucei rhodesiense
Conditions: Trypanosoma brucei, RHODESIENSE, read-out: T.b. rhod. EC50
experimental-readout: EC50 (nM)
Please give a number only; it is taken to be in nM.

Look up EC50 with T. b. rhodesiense STIB-900 for this molecule: Nc1ncnc2c1c(-c1cccc(Cl)n1)cn2[C@@H]1O[C@H](CO)[C@@H](O)[C@H]1O
620

How about Nc1ncnc2c1c(-c1ccccc1)cn2[C@@H]1O[C@H](CO)[C@@H](O)[C@H]1O ?
4100

How about Nc1ncnc2c1c(-c1cccc(Cl)c1)cn2[C@@H]1O[C@H](CO)[C@@H](O)[C@H]1O ?
6880

How about Nc1ncnc2c1c(-c1ccc(Cl)c(Cl)c1)cn2[C@@H]1O[C@H](CO)[C@@H](O)[C@H]1O ?
320

How about CC(C)Oc1ncnc2c1c(Cl)cn2[C@@H]1O[C@H](CO)[C@@H](O)[C@H]1O ?
100

How about CCOc1ncnc2c1c(Cl)cn2[C@@H]1O[C@H](CO)[C@@H](O)[C@H]1O ?
60

How about Nc1ncnc2c1c(-c1ccc(F)cc1)cn2[C@@H]1O[C@H](CO)[C@@H](O)[C@H]1O ?
14700

How about COc1ncnc2c1c(Br)cn2[C@@H]1O[C@H](CO)[C@@H](O)[C@H]1O ?
40

###

Kindly supply the reported EC50 values for the records listed here.
Experiment: Cytotoxicity against MRC-5 fibroblasts
Settings: human, MRC-5 fibroblasts, MRC-5 EC50, Table 5; cytotoxicity
Please give a number only; it is taken to be in µM.

So what does the record say about EC50 for CCOc1ncnc2c1c(Cl)cn2[C@@H]1O[C@H](CO)[C@@H](O)[C@H]1O ?
48.5

How about Nc1ncnc2c1c(-c1ccccc1)cn2[C@@H]1O[C@H](CO)[C@@H](O)[C@H]1O ?
56.2

How about Cc1ccc(-c2cn([C@@H]3O[C@H](CO)[C@@H](O)[C@H]3O)c3ncnc(N)c23)cc1 ?
26.2

How about Nc1ncnc2c1c(-c1cnccn1)cn2[C@@H]1O[C@H](CO)[C@@H](O)[C@H]1O ?
0.55
